# assay-comment: yeast display, Sf9 membrane polyspecificity reagent, FACS + sequencing; frameworks hold sequencing errors
measurement-label: polyreactivity (PSR sort gate)

Below: 5 sequences and their reported polyreactivity (PSR sort gate).
residues	polyreactivity (PSR sort gate)
QVQLVESGGGLVQAGGSLRLSCAASGRTFSAYAMGWYRQAPGKEMELVARITSVDSTNYADSVKGRFTISRDNAKNTVYLQMNSLKPEDTAVYYCNATFGYPFVDYDDYWGQGTQVTVSS	low polyreactivity
QVQLVESGGGLVQAGGSLRLSCAASGRTFIYYAMGWYRQAPGKEREFVAIISWNGTSTNYADSVKGRFTISRDKAKNTVYLQMNSLKPEDTAVYYCAASFWSDYYRYDYWGQGTQVTVSS	low polyreactivity
QVQLVESGGGLVQAGGSLRLSCAASGRTLRRYAMGWYRQAPGKERELVAGISRNGGSTYYADSVKGRFTISRDNAKNTVYLQMNSLKPEDTAVYYCNADDKAQSDYWGQGTQVTVSS	high polyreactivity
QVQLVESGGGLVQAGGSLRLSCAASGRTFTRNAMGWYRQAPGKDRELVAAISYSGGSTYYADSVKGRFTISRDNAKNTVYLQMNSLKPEDTAVYYCNAATSRRSIRYDYWGQGTQVTVSS	high polyreactivity
QVQLVESGGGLVQAGGSLRLSCAASGLTFYTYPMGWYRQAPGKERELVAAISSGGSTNYADSVKGRFTISRDNAKNTVYLQMNSLTPEDTAVYYCAADPSYFTYFSFDLSESDYWGKGTQVTVSS	low polyreactivity

In: I have this sequence here, QVQLVESGGGLVQAGGSLRLSCAASGSIFARYAMGWYRQAPGKERELVAAITSGGITNYADSVKGRFTISRDNAKNTVYLQKNSLKPEDTAVYYCAARRSGRVRYDYWGQGTQVTVSS , and I need its recorded polyreactivity (PSR sort gate).
Out: high polyreactivity

In: Then this sequence: QVQLVESGGVLVQAGGCLRLSCAASGSILDLNAMGWYRQAPGKERELVAAISLSGGTTYYADSVKGRFTISRDNAKNTVYLQMYSLKPEDTAVYYCNAGYFRPRAGNYVFGVESDYWGQGTQVTVSS
Out: high polyreactivity

###

# assay-comment: yeast display, Sf9 membrane polyspecificity reagent, FACS + sequencing; frameworks hold sequencing errors
measurement-label: polyreactivity (PSR sort gate)

Below: 6 sequences and their reported polyreactivity (PSR sort gate).
residues	endpoint-result
QVQLVESGGGLVQAGGSLRLSCAASGYIFGGYAMGWNRQAHGKERELVAGISIGVGSTYYADSVKGRFTISRDKAKNTVNLQMNSLKPEDTAVYYCNRDSVGYDYWGQGTQVTVSS	low polyreactivity
HVQLVESGGGLVQAGGSLRLSCAASGSIFPRYSMGRYRQAPGKEMELVAAITSGGSTYYADSVKGRFTISRDNAKNTVYLQMNSLKPEDTAVYYCAATIYRPKGGTYGWYGYDYWGQGTQVTVSS	high polyreactivity
QVQLVESGGGLVQAGGSLRLSCAASGSTFGLYAMGWYRQAPGKERELVADITWSGGSTYYADSVKGRFTISRDNAKNTVYLQMNSLKPEDTAVYYCAARYPWVYYDFDYWGQGTQVTVSS	low polyreactivity
QVQLVESGGGLVQAGGSLRLRCAASGRTFSGYAMGWYRQSPGKERELVAAITASGSSTYYADSVKGRFTSSRDNAKNTVDLQMNSLKPEDTAVYYCAADYTGDWADGPHSLREYDYWGQGTQVTVSS	low polyreactivity
QVQLVESGGGLVQAGGSLRLSCAASGRIFRVNTMGWYRQSPGKERELVAAIRSSGTRTYYADSVKGRFTISRDNAKNTVYLQMNSLKPEDTAVYYCAATGRRGSGYYYWGQGTQVTVSS	high polyreactivity
QVQLVESGGGLVQAGGSLRLSCAASGRTFGPYVMGGDRQAPGKERELVAGITSGGSTNYADSVKGRFTISRDNAKNTVYRQMNSLKPEDTAVYYCNADYLIYFGLYEYWGHGTQVTVSS	low polyreactivity

In: I have this sequence here, QVQLVESGGGLVQAGGSIRLSCSASGNIFSDNAMGWYRQAPGKERELGAAITSGGSTNYADSVNGRFTISRDNAKNTVYLQMNSLKPEDTAVYYCAADRGFYPSLWDYDYWGQGTQVTVSS , and I need its recorded polyreactivity (PSR sort gate).
Out: low polyreactivity

In: Then this sequence: QVQLVESGGGLVQAGGSLRLSCAASGSTFFRYTMGWYRQAPGKERELVAAISWSGGSTYYADSVKGRFTISRDNAKNTVYLQMNSLKPEDTAVYYCAAVYEWDAVKWVDVDMDYWGQGTQVTVSS
Out: low polyreactivity

In: Then this sequence: QVQLVESGGGLVQAGGSLRLSCAASGRIFTYYVMGWYRQAPWKERELVAAISYGGGSTYYADSVKGRFTISRDNAKNTVYLQMNSLKPEDTAGYYCAAEDGYRKMDYWGQGTQVTVSS
Out: low polyreactivity
